Biological target: BTK C481S (Homo sapiens, UniProt Q06187, C481S)
Sequence (Q06187 whole entry C481S): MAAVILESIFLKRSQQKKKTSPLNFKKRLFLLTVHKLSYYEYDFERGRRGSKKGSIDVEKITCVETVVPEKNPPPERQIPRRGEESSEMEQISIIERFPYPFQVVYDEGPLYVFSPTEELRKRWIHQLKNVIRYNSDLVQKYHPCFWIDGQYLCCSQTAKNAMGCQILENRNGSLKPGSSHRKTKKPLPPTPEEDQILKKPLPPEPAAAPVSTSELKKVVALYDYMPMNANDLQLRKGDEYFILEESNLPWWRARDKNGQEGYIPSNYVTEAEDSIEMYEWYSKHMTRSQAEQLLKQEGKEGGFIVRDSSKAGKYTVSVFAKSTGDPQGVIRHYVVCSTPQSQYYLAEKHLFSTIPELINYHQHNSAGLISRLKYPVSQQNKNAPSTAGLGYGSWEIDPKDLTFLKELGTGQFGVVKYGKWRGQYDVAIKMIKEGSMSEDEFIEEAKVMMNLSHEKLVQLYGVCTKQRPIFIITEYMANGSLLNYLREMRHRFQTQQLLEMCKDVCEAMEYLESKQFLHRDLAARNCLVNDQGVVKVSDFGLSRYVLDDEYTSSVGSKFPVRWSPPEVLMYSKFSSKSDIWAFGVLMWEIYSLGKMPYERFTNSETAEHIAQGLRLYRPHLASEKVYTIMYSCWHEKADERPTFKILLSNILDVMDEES
Assay: Kinase activity inhibition assay (HTRF TK Kit)
Experimental: In this assay, the HTRF TK Kit (Catalog No. 62TK0PEC) provided by Cisbio was used to detect the inhibitory activity of compounds on BTK kinase, BTK T474I kinase and BTK C481 S kinase and the selectivity of compounds relative to EGFR, ITK and TEC kinases. […] The entire operation steps were carried out on ice, and the total reaction volume was 10µL. […] The resulting mixture was reacted at room temperature for 1 hour, and then the plate was assayed with a microplate reader. […]
pIC50: −log10 of the molar value.
quantity: pIC50

Please review the following examples before continuing.
>>> reading("COc1ccc(F)cc1C(=O)NCc1ccc(-c2ncc(-c3ccccn3)c3[nH]nc(N)c23)cc1 [Example 15]")
"≥ 9.00"
>>> reading("COc1ccc(F)cc1C(=O)NCc1ccc(-c2ncc(-c3cnccn3)c3[nH]nc(N)c23)cc1 [Example 18]")
"8.30 to 9.00"
>>> reading("COc1ccc(F)cc1C(=O)NCc1ccc(-c2ncc(-c3ccc4nccn4n3)c3[nH]nc(N)c23)cc1 [Example 51]")
"≥ 9.00"

In: Form field - read-out: pIC50; system: BTK C481S (Homo sapiens, UniProt Q06187, C481S); submitted item: COc1ccc(F)cc1C(=O)NCc1ccc(-c2nc(C3CCSCC3)cc3[nH]nc(N)c23)cc1 [Example 91]
Out: 8.30 to 9.00

In: Form field - read-out: pIC50; system: BTK C481S (Homo sapiens, UniProt Q06187, C481S); submitted item: CNC(=O)Cn1ccc(-c2cnc(-c3ccc(CNC(=O)c4cc(F)ccc4OC)cc3)c3c(N)n[nH]c23)n1 [Example 26]
Out: 8.30 to 9.00

In: Form field - read-out: pIC50; system: BTK C481S (Homo sapiens, UniProt Q06187, C481S); submitted item: COc1ccc(F)cc1C(=O)NCc1ccc(-c2ncc(-c3ccc(NC(=O)C4CC4)cn3)c3[nH]nc(N)c23)cc1 [Example 79]
Out: 7.30 to 8.30

In: Form field - read-out: pIC50; system: BTK C481S (Homo sapiens, UniProt Q06187, C481S); submitted item: COc1ccc(F)cc1C(=O)NCc1ccc(-c2ncc(-c3ccc4c(n3)nc3n4CCOC3)c3[nH]nc(N)c23)cc1 [Example 102]
Out: 7.30 to 8.30

In: Form field - read-out: pIC50; system: BTK C481S (Homo sapiens, UniProt Q06187, C481S); submitted item: COc1ccc(F)cc1C(=O)NCc1ccc(-c2nc(C(C)C(F)(F)F)c(-c3ccn(C)n3)c3[nH]nc(N)c23)cc1 (single isomer, unassigned) [Example 6-2]
Out: 8.30 to 9.00
